B1: KLHL14 (parent)
chain: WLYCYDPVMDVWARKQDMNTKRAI

variants of: B1; test: protein stability index of a GFP-peptide fusion (GPS, HEK-293T) (PSI 1-6); higher = more stable; conditions: c terminus: a fixed tail appended;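 also: lentivirally expressed fusions sorted by FACS into six bins by GFP to DsRed ratio, PSI derived from sequencing read proportions per bin multiplied by bin number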
Classify by measured protein stability index: 1 if it is equal to or exceeds 2, -1 if it is smaller.

hey, is protein stability index for this one >= 2? WLYCYDPVMDVWARKQLMNTKRAI [D17L]
1

Hello, I need to know if WLYCYDPVMDVWARKQKMNTKRAI [D17K] has measured protein stability index not below 2. Thanks!
-1

I'd appreciate it if you could say whether WLYCYDPVMDVWARKQDMNTKPAI [R22P] has protein stability index at least equal to 2.
-1

Recorded values, source the supplement of paper PMC10567573.
